# System: HSkMC (human skeletal muscle cells)
# test: cytotoxicity call (relative viability < 0.9)
# testSettings: 10 µM
The campaign covered roughly 39,000 compounds. About 1,500 (3.8%) were called active. The sample as a whole holds a higher share of actives than the screen did.
Answer with one of the outcomes given here: active, inactive

Known results for compounds:
INSERT INTO results (recordsmiles, answerlabel) VALUES
  ('COc1cccc(S(=O)(=O)N(C)C[C@@H]2OCc3cnnn3CCCC(=O)N([C@H](C)CO)C[C@@H]2C)c1', 'inactive'),
  ('COc1ccc([Si](C)(C)[C@H]2[C@H](CCO)O[C@@]3(C(=O)N(Cc4ccc(N(C=O)c5ccccc5)cc4)c4ccccc43)[C@@H]2C)cc1', 'inactive'),
  ('CCCCC[C@H]1C[C@H]1C[C@H]1C[C@H]1CCCCCCCC(=O)O', 'inactive'),
  ('CN(C)CCCNC(=O)C[C@@H]1C=C[C@@H](NC(=O)Cc2cccnc2)[C@H](CO)O1', 'inactive');

## Task Would you mind telling me which call this test gave C[C@@H]1CN([C@H](C)CO)S(=O)(=O)c2ccc(/C=C/c3ccccc3)cc2O[C@@H]1CN(C)C(=O)Nc1cc(F)ccc1F ?
## Result inactive

## Task Could you kindly confirm the outcome this assay logged for COc1ccc(S(=O)(=O)Nc2ccc3c(c2)C(=O)N([C@@H](C)CO)C[C@H](C)[C@H](CN(C)C(=O)c2ccccc2)OCCCC[C@@H](C)O3)cc1 ?
## Result inactive

## Task What classification did C=CCN1C(=O)[C@]2(O[C@H](CCO)[C@@H]([Si](C)(C)c3ccc(OC)cc3)[C@@H]2C)c2cc(N(C=O)c3ccccc3)ccc21 end up with in this test?
## Result active

## Task I'd appreciate the recorded outcome for C[C@@H]1CN([C@@H](C)CO)C(=O)c2cc(NS(=O)(=O)c3ccc(F)cc3)ccc2O[C@@H](C)CCCCO[C@H]1CN(C)Cc1ccc(C(=O)O)cc1 from this test.
## Result inactive

## Task Can you look up the reported call for COc1ccc(S(=O)(=O)Nc2ccc3c(c2)CC(=O)N([C@@H](C)CO)C[C@@H](C)[C@H](CN(C)Cc2ccc(-c4ccccc4)cc2)O3)cc1 for me?
## Result inactive

## Task Dear colleague, could you share the recorded outcome for C[C@@H]1CN([C@@H](C)CO)C(=O)c2cc(NC(=O)CCC(F)(F)F)ccc2O[C@@H](C)CCCCO[C@H]1CN(C)C(=O)Nc1ccccc1 when you have a moment?
## Result inactive

## Task Per the assay record, what outcome was assigned to Cc1c(CN2CCN(C(=O)[C@H](C)O)CC2)sc2c(N3CCOCC3)nc(-c3cnc(N)nc3)nc12 ?
## Result active

## Task Query: recorded result category for COc1ccc([Si](C)(C)[C@@H]2[C@@H](CCO)O[C@]3(C(=O)N(Cc4ccccc4)c4ccc(N(C=O)c5ccccc5)cc43)[C@H]2C)cc1 in this test
## Result inactive
